Biological target: B1 bradykinin receptor (Homo sapiens)
Sequence (whole entry): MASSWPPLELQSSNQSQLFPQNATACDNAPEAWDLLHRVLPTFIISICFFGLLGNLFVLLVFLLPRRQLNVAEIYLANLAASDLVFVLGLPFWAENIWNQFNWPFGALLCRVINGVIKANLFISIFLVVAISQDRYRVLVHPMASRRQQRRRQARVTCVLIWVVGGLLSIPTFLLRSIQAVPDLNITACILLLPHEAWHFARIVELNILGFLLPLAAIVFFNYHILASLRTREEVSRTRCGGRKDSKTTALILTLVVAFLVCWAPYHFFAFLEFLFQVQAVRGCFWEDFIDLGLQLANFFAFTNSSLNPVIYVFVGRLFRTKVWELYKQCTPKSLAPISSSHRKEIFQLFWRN
Assay: In vitro binding affinity against Bradykinin receptor B1 at 1 uM concentration
Please provide measured inhibition for the entries that follow.
I only need the number, in %, no unit after it.

Form: item `Cc1ccc2cccc(OCc3c(C)ccc(N4CCC[C@@H]4C(=O)O)c3C)c2n1` ; test system B1 bradykinin receptor (Homo sapiens); inhibition: 1

B1 bradykinin receptor (Homo sapiens) assay, compound `Cc1ccc2cccc(OCc3c(C)ccc(N4CCC[C@H]4CO)c3C)c2n1` , recorded inhibition = 1

Noted inhibition for `CC(=O)Nc1ccc(/C=C/C(=O)NC[C@@H]2CCCN2c2ccc(C)c(COc3cccc4ccc(C)nc34)c2C)cn1` , tested on B1 bradykinin receptor (Homo sapiens): 1

So the reported inhibition for `Cc1ccc2cccc(OCc3c(C)ccc(N4CCC[C@@H]4CN4C(=O)c5ccccc5C4=O)c3C)c2n1` , on B1 bradykinin receptor (Homo sapiens), turned out to be 1

Field inhibition (B1 bradykinin receptor (Homo sapiens)), entry `CC(=O)Nc1ccc(/C=C/C(=O)NC[C@H]2CCCN2c2ccc(C)c(COc3cccc4ccc(C)nc34)c2C)cn1` : 1

The compound `Cc1ccc2cccc(OCc3c(C)ccc(N4CCC[C@@H]4CO)c3C)c2n1` , when measured on B1 bradykinin receptor (Homo sapiens), yielded inhibition of 9

Entry `Cc1ccc2cccc(OCc3c(C)ccc(N4CCC[C@H]4CN4C(=O)c5ccccc5C4=O)c3C)c2n1` ; assay system B1 bradykinin receptor (Homo sapiens); inhibition recorded at 5

Observed inhibition on B1 bradykinin receptor (Homo sapiens), entry `Cc1ccc2cccc(OCc3c(C)ccc(N4CCC[C@H]4C(=O)O)c3C)c2n1` , equals 6
